ASSAY OVERVIEW: In vitro binding affinity was determined against butyrylcholinesterase from torpedo californica
Reported values of pKi for individual entries
Bear in mind: pKi is minus log10 of a mol/L concentration; give just that figure.

| COMPOUND STRUCTURE | pKi |
| --- | --- |
| CC(=O)O[C@H]1[C@@H](NC(=O)c2ccccc2)[C@@H](O)C[C@]2(C)[C@H]3CC[C@]4(C)[C@@H]([C@H](C)N(C)C)CC[C@H]4[C@@H]3CC[C@@H]12 | 4.69 |
| C/C=C(\C)C(=O)N[C@H]1CC[C@@]2(C)C(=CC[C@H]3[C@@H]4CC[C@H]([C@H](C)N(C)C)[C@@]4(C)CC[C@@H]32)C1=O | 5.51 |
| CC(=O)O[C@H]1[C@@H](NC(=O)C=C(C)C)CC[C@]2(C)[C@H]3CC[C@]4(C)[C@@H]([C@H](C)N(C)C)CC[C@H]4[C@@H]3CC[C@@H]12 | 5.59 |
| C/C=C(\C)C(=O)N[C@H]1CC[C@@]2(C)C(=CC[C@H]3C4=CC[C@H]([C@H](C)N(C)C)[C@@]4(C)CC[C@@H]32)C1=O | 5.80 |
| C[C@@H]([C@H]1CC[C@H]2[C@@H]3CC[C@H]4C[C@@H](N(C)C(=O)/C=C/c5ccccc5)CC[C@]4(C)[C@H]3CC[C@]12C)N(C)C | 5.18 |
| C/C(=C\C(=O)N[C@H]1CC[C@@]2(C)[C@@H](CC[C@@H]3[C@@H]2CC[C@]2(C)[C@@H]([C@H](C)N(C)C)CC[C@@H]32)C1)C(C)C | 5.49 |

Note to self: pKi recorded for C/C(=C\C(=O)N(C)[C@H]1CC[C@@]2(C)[C@@H](CC[C@@H]3[C@@H]2CC[C@]2(C)[C@@H]([C@H](C)N(C)C)CC[C@@H]32)C1)C(C)C was 5.47

###

ASSAY OVERVIEW: In vitro anticholinesterase activity against butyrylcholinesterase from torpedo californica
Mark each entry y if its IC50 sits below 10 µM, and n for all others.

Some solved cases for reference:
| MOLECULE | CLASS NAME |
| --- | --- |
| CC(=O)N[C@H]1CC[C@@]2(C)[C@@H](CC[C@@H]3[C@@H]2CC[C@]2(C)[C@@H]([C@H](C)N(C)C)CC[C@@H]32)C1 | n |
| C/C(=C\C(=O)N(C)[C@H]1CC[C@@]2(C)[C@@H](CC[C@@H]3[C@@H]2CC[C@]2(C)[C@@H]([C@H](C)N(C)C)CC[C@@H]32)C1)C(C)C | y |
| C/C=C(\C)C(=O)N[C@H]1CC[C@@]2(C)C(=CC[C@H]3[C@@H]4CC[C@H]([C@H](C)N(C)C)[C@@]4(C)CC[C@@H]32)C1=O | y |
| C/C=C(\C)C(=O)N[C@@H]1[C@H](OC(C)=O)[C@@H]2CC[C@@H]3[C@H](CC[C@]4(C)[C@@H]([C@H](C)N(C)C)CC[C@@H]34)[C@@]2(C)C[C@@H]1O | n |

Query: Does C/C=C(\C)C(=O)N[C@H]1CC[C@@]2(C)C(=CC[C@H]3C4=CC[C@H]([C@H](C)N(C)C)[C@@]4(C)CC[C@@H]32)C1=O have IC50 strictly under 10 µM?
Reply: y

Query: hey, is IC50 for C/C=C(\C)C(=O)NC1C=C2CC[C@@H]3[C@H](CC[C@]4(C)C([C@H](C)N(C)C)=CC[C@@H]34)[C@@]2(C)C[C@H]1O (stereo partly specified) lower than 10 µM or not?
Reply: n
